target-under-test: Glutamate [NMDA] receptor
protocol-text: Displacement of [3H]glycine from NMDA receptor (unknown origin)
Assay type: protein-complex assay, Homo sapiens
For each record, write down the corresponding pKi.
Give bare numbers, as −log10 of the molar value.

> print(dat)
                               input.smiles          target.under.test  measurement.name  measured
1   Cc1cc2[nH]c(=O)c(=O)n(CP(=O)(O)O)c2cc1C  Glutamate [NMDA] receptor               pKi      5.28
2  O=C(O)Cn1c(=O)c(=O)[nH]c2cc(Cl)c(Cl)cc21  Glutamate [NMDA] receptor               pKi      6.96

// sample `Cc1cc2[nH]c(=O)c(=O)n(CC(=O)O)c2cc1C` , its pKi was 4.86

* * *

For each record, write down the corresponding pIC50.
protocol-text: Inhibition of ALR2 (unknown origin)
Design: species or system Homo sapiens
Numbers only, as −log10 of the molar value.

In the examples that follow, each entry is paired with its recorded pIC50.
> print(dat)
                               input.smiles  measured
1  O=C(O)Cn1c(=O)c(Oc2ccc(O)cc2)nc2cc(F)ccc21      7.71
2  O=C(O)Cn1c(=O)c(Oc2ccc(Br)cc2F)nc2ccc(F)cc21      8.19
3  O=C(O)Cn1c(=O)c(Oc2cc(O)cc(O)c2)nc2ccc(Cl)cc21      6.25

// below: pIC50 requested for another compound
// sample `O=C(O)Cn1c(=O)c(-c2ccc(O)cc2O)nc2ccc(F)cc21` , its pIC50 was 7.49

* * *

target-under-test: Prothrombin (Homo sapiens, UniProt P00734)
measurement-name: IC50 (µM)
One number for each entry, in µM.

// sample `C[C@@H]1CCC[C@H](C)N1CCCCCn1c(=O)c(-c2cc(C(=N)N)ccc2O)nc2ccccc21` , its IC50 was 3.5

* * *

Parameter 'readout' = IC50; parameter 'system' = Vascular endothelial growth factor receptor 2 (Homo sapiens, UniProt P35968).
Sequence (P35968 whole entry): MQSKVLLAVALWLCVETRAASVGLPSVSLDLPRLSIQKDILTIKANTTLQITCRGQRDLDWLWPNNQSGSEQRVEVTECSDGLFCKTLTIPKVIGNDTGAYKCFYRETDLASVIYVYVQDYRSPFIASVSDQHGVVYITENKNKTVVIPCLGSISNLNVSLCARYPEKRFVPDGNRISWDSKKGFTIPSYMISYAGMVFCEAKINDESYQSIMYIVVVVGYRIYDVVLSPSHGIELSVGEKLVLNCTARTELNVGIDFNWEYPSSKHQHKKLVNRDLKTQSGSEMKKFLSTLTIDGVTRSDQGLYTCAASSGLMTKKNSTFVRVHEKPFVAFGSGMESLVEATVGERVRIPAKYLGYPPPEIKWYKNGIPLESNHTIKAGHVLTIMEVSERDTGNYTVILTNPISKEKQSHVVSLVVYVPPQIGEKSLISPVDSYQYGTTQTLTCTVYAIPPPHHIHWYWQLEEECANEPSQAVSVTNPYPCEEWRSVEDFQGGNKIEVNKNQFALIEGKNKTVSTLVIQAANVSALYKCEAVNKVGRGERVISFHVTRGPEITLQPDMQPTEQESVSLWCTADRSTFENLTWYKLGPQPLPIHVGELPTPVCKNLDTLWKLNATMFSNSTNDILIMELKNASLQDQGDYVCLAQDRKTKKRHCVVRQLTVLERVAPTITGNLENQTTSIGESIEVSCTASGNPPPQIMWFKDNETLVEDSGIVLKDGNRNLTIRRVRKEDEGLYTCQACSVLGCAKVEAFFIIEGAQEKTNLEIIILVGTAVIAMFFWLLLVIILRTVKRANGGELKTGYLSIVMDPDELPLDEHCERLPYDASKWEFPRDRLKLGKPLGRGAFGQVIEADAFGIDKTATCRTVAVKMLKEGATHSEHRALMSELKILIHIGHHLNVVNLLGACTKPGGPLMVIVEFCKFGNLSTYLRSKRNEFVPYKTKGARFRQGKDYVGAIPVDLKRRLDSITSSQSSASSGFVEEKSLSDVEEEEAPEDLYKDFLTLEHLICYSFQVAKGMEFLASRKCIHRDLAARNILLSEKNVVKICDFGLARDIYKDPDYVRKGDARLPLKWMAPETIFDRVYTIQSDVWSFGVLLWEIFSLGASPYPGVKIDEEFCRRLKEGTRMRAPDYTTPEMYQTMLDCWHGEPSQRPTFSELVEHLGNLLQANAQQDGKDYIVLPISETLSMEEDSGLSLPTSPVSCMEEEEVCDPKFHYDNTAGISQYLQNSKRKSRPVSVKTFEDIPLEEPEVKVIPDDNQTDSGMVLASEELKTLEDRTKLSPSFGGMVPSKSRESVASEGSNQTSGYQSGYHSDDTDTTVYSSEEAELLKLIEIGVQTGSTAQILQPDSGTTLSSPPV
Give bare numbers, in nM.

> print(dat)
                               input.smiles                         target.under.test  measurement.name  measured
1  O=C(Cn1c(=O)c2nncn2c2ccccc21)Nc1ccc(C(=O)Nc2ccc(Cl)cc2)cc1  Vascular endothelial growth factor receptor 2 (Homo sapiens, UniProt P35968)              IC50       3.4

// below: IC50 requested for another molecule
// sample `Cc1ccc(O)c(NC(=O)c2ccc(NC(=O)Cn3c(=O)c4nncn4c4ccccc43)cc2)c1` , its IC50 was 3.9

* * *

Test system: Klebsiella pneumoniae
protocol-text: Antibacterial activity against Klebsiella pneumoniae
Assay type: functional
For each record, write down the corresponding MIC.
Answers are plain numbers, in µg/mL.

In the examples that follow, each entry is paired with its recorded MIC.
> print(dat)
                               input.smiles  measured
1   O=C1CC(c2ccccc2)=NN1c1nc2ccccc2[nH]c1=O       7.8
2  COc1cnc2ccc(=O)n(C[C@@H](N)[C@H]3CC[C@H](NCc4ccc5c(n4)NC(=O)CO5)CC3)c2c1         8
3  C/C(=N\NC(=O)Cn1c(=O)c(C)nc2ccccc21)c1ccc(O)cc1       125
4  COc1ccc(/C(C)=N/NC(=O)Cn2c(=O)c(C)nc3ccccc32)cc1       125
5  C/C(=N\NC(=O)Cn1c(=O)c(C)nc2ccccc21)c1cccnc1       125
6  C/C(=N\NC(=O)Cn1c(=O)c(C)nc2ccccc21)c1ccc(N)cc1       125

// below: MIC requested for another compound
// sample `C/C(=N\Nc1nc2ccccc2[nH]c1=O)c1cc2cc(Cl)ccc2oc1=O` , its MIC was 7.8

* * *

target-under-test: Glutamate [NMDA] receptor
protocol-text: Displacement of [3H]NMDA from NMDA receptor (unknown origin)
Assay type: protein-complex assay, Homo sapiens
measurement-name: IC50 (nM)
One number for each entry, in nM.

> print(dat)
                                   compound  readout.units  measured
1  CCCn1cnc(Cc2c(Cl)c(Cl)cc3nc(O)c(O)nc23)c1             nM       350

// sample CCC(c1c(Cl)c(Cl)cc2nc(O)c(O)nc12)n1cnnc1 (configuration not stated) , its IC50 was 90

* * *

For each record, write down the corresponding pIC50.
target-under-test: Epidermal growth factor receptor (Homo sapiens, UniProt P00533, L858R)
Sequence (P00533 25-1210 L858R limits assumed): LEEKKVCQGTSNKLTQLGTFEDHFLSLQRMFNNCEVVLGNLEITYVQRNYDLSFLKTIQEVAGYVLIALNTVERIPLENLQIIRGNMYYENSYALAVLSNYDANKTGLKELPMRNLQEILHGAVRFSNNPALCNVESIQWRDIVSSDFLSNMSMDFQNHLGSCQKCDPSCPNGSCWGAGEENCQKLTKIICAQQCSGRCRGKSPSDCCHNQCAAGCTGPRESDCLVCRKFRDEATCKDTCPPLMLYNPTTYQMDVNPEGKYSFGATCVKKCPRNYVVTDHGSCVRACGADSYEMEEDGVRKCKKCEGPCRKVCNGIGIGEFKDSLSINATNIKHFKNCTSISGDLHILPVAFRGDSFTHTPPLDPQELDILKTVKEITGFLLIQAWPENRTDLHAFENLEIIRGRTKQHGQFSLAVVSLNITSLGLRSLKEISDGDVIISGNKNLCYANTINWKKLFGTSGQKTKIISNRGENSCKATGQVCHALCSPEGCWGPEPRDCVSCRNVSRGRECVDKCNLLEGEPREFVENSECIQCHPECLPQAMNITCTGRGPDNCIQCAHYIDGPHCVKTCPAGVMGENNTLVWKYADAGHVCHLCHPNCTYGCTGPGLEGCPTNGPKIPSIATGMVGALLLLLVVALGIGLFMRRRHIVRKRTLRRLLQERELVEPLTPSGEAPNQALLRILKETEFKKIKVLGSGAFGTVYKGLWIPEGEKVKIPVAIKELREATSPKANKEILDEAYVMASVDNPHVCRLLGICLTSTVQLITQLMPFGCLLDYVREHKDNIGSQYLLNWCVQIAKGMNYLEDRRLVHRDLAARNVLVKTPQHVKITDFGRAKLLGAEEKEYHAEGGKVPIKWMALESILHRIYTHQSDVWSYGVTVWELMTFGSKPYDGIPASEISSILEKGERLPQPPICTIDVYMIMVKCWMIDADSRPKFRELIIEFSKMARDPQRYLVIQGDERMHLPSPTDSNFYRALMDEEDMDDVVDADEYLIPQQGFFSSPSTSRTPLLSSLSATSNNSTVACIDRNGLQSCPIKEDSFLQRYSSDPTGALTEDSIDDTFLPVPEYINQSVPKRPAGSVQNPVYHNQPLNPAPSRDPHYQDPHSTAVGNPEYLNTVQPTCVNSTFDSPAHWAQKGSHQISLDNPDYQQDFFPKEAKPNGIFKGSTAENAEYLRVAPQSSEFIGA
protocol-text: Inhibition of EGFR L858R mutant (unknown origin)
Numbers only, as −log10 of the molar value.

In the examples that follow, each entry is paired with its recorded pIC50.
> print(dat)
                       input.smiles                         target.under.test  measured
1   NNC(=O)/C=C1/Nc2ccc(Br)cc2NC1=O  Epidermal growth factor receptor (Homo sapiens, UniProt P00533, L858R)      7.06
2  COC(=O)CCc1nc2ccc(Br)cc2[nH]c1=O  Epidermal growth factor receptor (Homo sapiens, UniProt P00533, L858R)      7.12

// below: pIC50 requested for another molecule
// sample `COC(=O)CCc1nc2ccc(Cl)cc2[nH]c1=O` , its pIC50 was 7.08

* * *

protocol-text: Antioxidant activity assessed as ABTS radical scavenging activity
Format: functional
measurement-name: pIC50
Give bare numbers, as −log10 of the molar value.

// sample `Cc1ccc(NC(=O)Cn2c(=O)c(C)nc3ccccc32)c([N+](=O)[O-])c1` , its pIC50 was 3.48

* * *

Parameter 'readout' = log10 IC50; parameter 'system' = Human immunodeficiency virus type 1 reverse transcriptase (Human immunodeficiency virus 1).
Reminder: these figures are log10 of reported IC50, in nM before transformation.

In the examples that follow, each entry is paired with its recorded log10 IC50.
> print(dat)
                                   compound                         target.under.test  measurement.name  measured
1  COC(=O)c1sc(Cl)cc1S(=O)(=O)N1c2cc(Cl)ccc2NC(=O)C1C (centres undefined)  Human immunodeficiency virus type 1 reverse transcriptase (Human immunodeficiency virus 1)        log10 IC50      1.85
2  COC(=O)c1sc(I)cc1S(=O)(=O)N1c2cc(Cl)ccc2NC(=O)C1C (centres undefined)  Human immunodeficiency virus type 1 reverse transcriptase (Human immunodeficiency virus 1)        log10 IC50      1.88
3  COC(=O)c1sccc1S(=O)(=O)N1c2cc(Cl)ccc2NC(=O)C1C (centres undefined)  Human immunodeficiency virus type 1 reverse transcriptase (Human immunodeficiency virus 1)        log10 IC50      2.30

// each compound listed below needs its log10 IC50
1. CC(C)Cc1nc2ccccc2[nH]c1=O
2. CCOC(=O)N1c2ccccc2NC(=O)[C@]1(C#CC1CC1)C(F)(F)F
3. COC(=O)c1sccc1S(=O)(=O)N1c2cc(F)ccc2NC(=O)C1C (centres undefined)
4. CC(C)COC(=O)N1c2ccccc2NC(=O)[C@H]1CC(C)C
5. CC(C)COC(=O)N1c2ccccc2NC(=O)[C@H]1C
6. CCC(=O)N1CC(=O)Nc2ccccc21

[4.36, 1.65, 2.30, 4.83, 4.81, 2.80]

* * *

protocol-text: Binding affinity to KA receptor (unknown origin)
Design: species or system Homo sapiens
For each record, write down the corresponding IC50.

In the examples that follow, each entry is paired with its recorded IC50.
> print(dat)
                               input.smiles  measured
1  O=C(O)c1ccc(-c2ccc3[nH]c(=O)c(=O)[nH]c3c2)cc1  > 100 µM
2  O=c1[nH]c2ccc(/C=C/CP(=O)(O)O)cc2[nH]c1=O  > 100 µM
3    O=c1[nH]c2ccc(CCCP(=O)(O)O)cc2[nH]c1=O  > 100 µM

// below: IC50 requested for another compound
// sample `O=C(O)c1cc(-c2ccc3[nH]c(=O)c(=O)[nH]c3c2)ccc1Cl` , its IC50 was 57 µM

* * *

target-under-test: Glutamate [NMDA] receptor
protocol-text: Displacement of [3H]L-689560 from NMDA receptor (unknown origin)
Assay type: protein-complex assay, Homo sapiens
measurement-name: IC50 (nM)
One number for each entry, in nM.

> print(dat)
                                   molecule  measurement.name  measured
1  CCC(c1c(Cl)c(Cl)cc2nc(O)c(O)nc12)n1cnnc1 (configuration not stated)              IC50       2.6

// below: IC50 requested for another molecule
// sample `CCCn1cnc(Cc2c(Cl)c(Cl)cc3nc(O)c(O)nc23)c1` , its IC50 was 4.4

* * *

Test system: Bacillus cereus
protocol-text: Antibacterial activity against Bacillus cereus
Format: functional
measurement-name: MIC

In the examples that follow, each entry is paired with its recorded MIC.
> print(dat)
                               input.smiles  measurement.name   measured
1  CCCCCCCCCn1c(=O)c2c(-c3ccccc3)nc(-c3ccc[n+](CCCCCCCCC)c3)n2c2ccccc21.[Br-]               MIC  6.3 µg/mL
2  C/C(=N\Nc1nc2ccccc2[nH]c1=O)c1cc2cc(Cl)ccc2oc1=O               MIC  7.8 µg/mL
3  CCCCCCn1c(=O)c2c(-c3ccccc3)nc(-c3ccc[n+](Cc4ccccc4)c3)n2c2ccccc21.[Cl-]               MIC  6.3 µg/mL

// sample `CCCCCCCCC[n+]1cccc(-c2nc(-c3ccccc3)c3c(=O)n(CCCCCC)c4ccccc4n23)c1.[Br-]` , its MIC was 0.97 µg/mL
